- System: HT-29
- Assay Protocol: SRB colorimetric assay of cell growth and viability, HT-29
- Type: cell-based, human
- Condition Notes: 48 hours exposure; read-out: LC50 HT-29
Where a SMILES comes first, the peptide text is derived from it. Bridges are numbered along the chain shown (N, C = ends). [ ]: non-standard residue; d: D form. The star is where a group is joined. d(aIle) = CC[C@H](C)[C@@H](N)C(=O)O; d(aThr) = C[C@@H](O)[C@@H](N)C(=O)O; Hexanoyl(5-Me) = CC(C)CCCC(=O)*; Orn = NCCC[C@H](N)C(=O)O; Dhb = C/C=C(\N)C(=O)O
Entries and their measured CC50 follow.
Quick note: give the figure in µM, leave out the unit.

>>> assay_result("C/C=C1\\NC(=O)[C@H](Cc2ccccc2)NC(=O)[C@@H](C(C)C)NC(=O)[C@@H]([C@@H](C)CC)NC(=O)[C@H](NC(=O)[C@H](NC(=O)[C@H](CCCN)NC(=O)[C@H]2CCCN2C(=O)[C@H](NC(=O)[C@H](CCCN)NC(=O)[C@@H](NC(=O)[C@H](NC(=O)CCCC(C)C)C(C)C)[C@@H](C)O)C(C)C)[C@@H](C)CC)[C@@H](C)OC(=O)[C@H](C(C)C)NC1=O [Compound 49, [Orn^11]-KF] ({Hexanoyl(5-Me)}-[dV]T[Orn][dV][dP][Orn][d(aIle)][d(aThr)][d(aIle)][dV]F[Dhb]V; ester 8-C)")
6.7

For the next question, use this compound.
Given the entry C/C=C1\NC(=O)[C@H](Cc2ccccc2)NC(=O)[C@@H](C(C)C)NC(=O)[C@@H]([C@@H](C)CC)NC(=O)[C@H](NC(=O)[C@H](NC(=O)[C@H](CCCN)NC(=O)[C@H]2CCCN2C(=O)[C@H](NC(=O)[C@@H](NC(=O)[C@@H](NC(=O)[C@H](NC(=O)CCCCCCC)C(C)C)[C@@H](C)O)C(C)C)C(C)C)[C@@H](C)CC)[C@@H](C)OC(=O)[C@H](C(C)C)NC1=O [Compound 18, [Oct^14]-KF] , report its measured CC50. 0.536
